src = ChEMBL document CHEMBL1811872

# pIC50 annotations
- tested_system: Tryptophan 2,3-dioxygenase (Mus musculus, UniProt P48776)
- Sequence (P48776 whole entry): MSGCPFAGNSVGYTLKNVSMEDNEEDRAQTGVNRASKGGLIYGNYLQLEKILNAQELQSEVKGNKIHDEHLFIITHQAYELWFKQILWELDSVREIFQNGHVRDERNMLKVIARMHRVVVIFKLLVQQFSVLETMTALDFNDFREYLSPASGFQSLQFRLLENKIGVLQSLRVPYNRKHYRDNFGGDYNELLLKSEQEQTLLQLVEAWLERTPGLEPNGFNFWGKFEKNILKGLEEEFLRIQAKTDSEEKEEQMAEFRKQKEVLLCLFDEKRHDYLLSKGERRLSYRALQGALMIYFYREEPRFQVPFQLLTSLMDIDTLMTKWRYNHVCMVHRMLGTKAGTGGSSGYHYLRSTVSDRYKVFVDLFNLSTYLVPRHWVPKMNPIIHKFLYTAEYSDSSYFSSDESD
- experiment: Inhibition of mouse TDO expressed in mouse P815B cells assessed as inhibition of tryptophan catabolism by measuring kynurenine production after 8 hrs by HPLC analysis
pIC50: −log10 of the molar value.

Prompt line: Please give the measured pIC50 for this molecule: C(=C\c1ccc2[nH]ccc2c1)/c1cccnc1
Response line: < 3.70

Prompt line: What value of pIC50 has been reported for the following molecule? C/C=C/c1c[nH]c2ccccc12
Response line: < 4.10

Prompt line: Name the reported pIC50 value associated with the molecule Cc1cccc2c(/C=C/c3cccnc3)c[nH]c12
Response line: < 3.70

Prompt line: Bench note: what pIC50 did N#Cc1c[nH]c2ccccc12 show?
Response line: < 4.10

---

- tested_system: Tryptophan 2,3-dioxygenase (Mus musculus, UniProt P48776)
- experiment: Inhibition of mouse TDO expressed in mouse P815B cells assessed as inhibition of tryptophan catabolism by measuring kynurenine production after 8 hrs by HPLC analysis
reported_endpoint: pIC50
// pIC50 is dimensionless: -log10 of concentration (M)

1. Fc1cccc2[nH]cc(/C=C/c3cccnc3)c12    5.00

Moving on to another molecule below.
Prompt line: Form field: reported pIC50 of c1cncc(CCc2c[nH]c3ccccc23)c1
Response line: 4.10

---

- tested_system: Tryptophan 2,3-dioxygenase (Mus musculus)
- experiment: Inhibition of mouse TDO expressed in mouse P815B cells assessed as inhibition of tryptophan catabolism by measuring kynurenine production after 8 hrs by HPLC analysis
- Assay type: cell-based
// IC50 lookup, one value per entry

Example entries and their recorded answers appear below.
1. N#Cc1ccc2[nH]cc(/C=C/c3cccnc3)c2c1    > 200 µM
2. N#C/C(=C\c1c[nH]c2cc(F)ccc12)c1ccccc1    > 80 µM

Prompt line: Requested field: IC50. Item: Cc1[nH]c2ccccc2c1/C=C/c1cccnc1
Response line: > 200 µM
